The reported measurements were obtained from PubChem BioAssay (NCI).

system: SF-539 CNS; experiment: NCI-60 one-dose screen, 48 h (100 = growth as untreated, 0 = no growth, -100 = all killed); conditions: 10 µM unless noted
The panel holds about 83,000 compounds, 20% with a hit somewhere; the sample as a whole holds those more often.
# label = True if growth < 90% else False

INSERT INTO results (molecule, testedon, group) VALUES
  ('CC1(C)CC(=O)C2=C(C1)OC(C(=O)c1ccccc1)C2c1cccc(Oc2ccccc2)c1 (stereo not given)', 'SF-539 CNS', 'True'),
  ('O=C(c1ccccc1)[C@@H](c1ccccc1)[C@]1(O)C(=O)Nc2ccccc21', 'SF-539 CNS', 'False'),
  ('CN1CCN(Cc2ccc(NC(=O)c3cncc(C#Cc4c(N)ncc5ccccc45)c3)cc2C(F)(F)F)CC1', 'SF-539 CNS', 'True'),
  ('O=C1c2c(c3c4cc(F)ccc4oc3c3[nH]c4ccccc4c23)C(=O)N1O', 'SF-539 CNS', 'True'),
  ('Cc1nc2cccc(NCc3ccc(C(=O)NO)cc3)c2c(=O)n1-c1ccccc1', 'SF-539 CNS', 'True'),
  ('CC/C(=C(/c1ccc(Cl)cc1)c1ccc(OCCN2CCCC2)cc1)c1ccccc1', 'SF-539 CNS', 'True'),
  ('N#C/C(=C\c1cccc2cnccc12)N1N=NC2C=CC=CC21 (stereo not given)', 'SF-539 CNS', 'True'),
  ('COC(=O)c1c(C(=O)OC)c2ccc3c4ncccc4ccc3n2c1C(=O)c1ccc(C)cc1', 'SF-539 CNS', 'False'),
  ('Cc1ccc(C2=Nc3c(N)nc(N)nc3NC(c3cccc(Nc4ccnc5cc(C(F)(F)F)ccc45)c3)C2)cc1 (stereo not given)', 'SF-539 CNS', 'True'),
  ('CCN1C(=O)N(CC)C2C1NN=c1s/c(=C\c3ccc([N+](=O)[O-])cc3)c(=O)n12 (stereo not given)', 'SF-539 CNS', 'True'),
  ('COc1c(O[C@@H]2OC(CO)[C@H](O)[C@H](O)C2O)cc2oc3cc(O)c(CC=C(C)C)c(O)c3c(=O)c2c1CC=C(C)C (stereo not given in full)', 'SF-539 CNS', 'False'),
  ('CNC(=O)c1cc(Oc2ccc3nc(NC(=O)Nc4ccc(F)cc4F)sc3c2)ccn1', 'SF-539 CNS', 'True'),
  ('COc1ccc(C(=O)C2OC3=C(C(=O)CC(C)(C)C3)C2c2cccc(Oc3ccccc3)c2)cc1 (stereo not given)', 'SF-539 CNS', 'False'),
  ('C=C(c1ccc(C(=O)O)c(F)c1)c1cc2c(cc1C)C(C)(C)C=CC2(C)C', 'SF-539 CNS', 'True'),
  ('COc1cc(C)cc(-c2c(-c3cc(N4CC(O)C4)nc(-c4cccnc4)n3)cnn2C)c1', 'SF-539 CNS', 'False'),
  ('C(CCCSC1=NCCN1)CCSC1=NCCN1', 'SF-539 CNS', 'False'),
  ('Cc1cc2c(c(C)n1)CN(C(=O)Nc1nc(-c3cncs3)ccc1N)C2', 'SF-539 CNS', 'True'),
  ('COc1cc(-c2ccc(-c3ccc(C(=N)N)s3)s2)cc(OC)c1OC', 'SF-539 CNS', 'True');

* * *

system: NCI/ADR-RES ovarian; test: NCI-60 one-dose screen, 48 h; settings: 10 µM unless noted
Compounds without any hit were thinned out: in the full panel of roughly 83,000, 20% have a hit. Activity calls are given as the source filed them. The calls were made as follows: active = growth percent below 10; inactive = the rest.
Classes used: Yes (active), No (inactive)

INSERT INTO assay_data (compound, testedon, group) VALUES
  ('COc1cc2cc(Oc3ccc(NC(=O)Nc4ccc(Cl)c(Cl)c4)cc3)c(C)nc2cc1OCCN1CCCCC1', 'NCI/ADR-RES ovarian', 'No'),
  ('Cc1ccc(Nc2oc(-c3ccccc3)nc2[P+](c2ccccc2)(c2ccccc2)c2ccccc2)cc1', 'NCI/ADR-RES ovarian', 'Yes'),
  ('NC(=N\N=C/c1ccc(Cl)cc1Cl)/C(N)=N\N=C/c1ccc(Cl)cc1Cl', 'NCI/ADR-RES ovarian', 'No'),
  ('COc1cccc(/C=C2\CCc3ccccc3C2=O)c1', 'NCI/ADR-RES ovarian', 'No'),
  ('Nc1ccc(N)c2c1C(=O)c1cccc([N+](=O)[O-])c1C2=O', 'NCI/ADR-RES ovarian', 'No'),
  ('Cc1cc(C(=O)Nc2cc(Nc3ncccc3-c3ncnc4nc[nH]c34)ccc2F)cc(C(C)(C)C#N)c1', 'NCI/ADR-RES ovarian', 'No'),
  ('CC(=O)CC(=O)c1ccccc1.[Cu+2]', 'NCI/ADR-RES ovarian', 'No'),
  ('COc1ccc(N2C(=O)/C(=C/C(Cl)=C/c3ccc([N+](=O)[O-])cc3)SC2=S)cc1', 'NCI/ADR-RES ovarian', 'Yes'),
  ('O=S(=O)(Nc1ccc(Br)cc1)c1ccc(-c2cnc(C3CC3)o2)cc1', 'NCI/ADR-RES ovarian', 'Yes'),
  ('CC(CN)[C@@H]1CC[C@]2(CO)CC[C@]3(C)[C@H](CC[C@@H]4[C@@]5(C)CCC(NCCO)C(C)(C)[C@@H]5CC[C@]43C)[C@@H]12 (some centres undefined)', 'NCI/ADR-RES ovarian', 'No'),
  ('Cc1cccc(CN(Nc2ccccc2)c2ccccc2)n1', 'NCI/ADR-RES ovarian', 'No'),
  ('Nc1nc(N)c2c(n1)NC(c1cccc(Nc3ccnc4cc(C(F)(F)F)ccc34)c1)CC(c1ccc(Cl)cc1)=N2 (centres undefined)', 'NCI/ADR-RES ovarian', 'No'),
  ('COCCn1cc(-c2nc(-c3cc4cccnc4n3C)cs2)c2cc(OC)ccc21', 'NCI/ADR-RES ovarian', 'No'),
  ('N#Cc1c(-c2ccc(Cl)cc2)nc(NN=Cc2cccc(Cl)c2)nc1N1CCOCC1', 'NCI/ADR-RES ovarian', 'No'),
  ('C=CN(C(=O)N1CCN(c2cc3c(cc2F)c(=O)c(C(=O)O)cn3C2CC2)CC1)c1nc(-c2ccc(C)cc2)cs1', 'NCI/ADR-RES ovarian', 'No'),
  ('OC1CSSC1Cn1cnc2c(Nc3ccc(F)c(Cl)c3)ncnc21 (centres undefined)', 'NCI/ADR-RES ovarian', 'No'),
  ('[2H]C([2H])([2H])Oc1c(F)cccc1/C=C/C(=O)/C=C(O)/C=C/c1cccc(F)c1OC([2H])([2H])[2H]', 'NCI/ADR-RES ovarian', 'No'),
  ('C=C(c1ccc(C(=O)O)c(F)c1)c1cc2c(cc1C)C(C)(C)C=CC2(C)C', 'NCI/ADR-RES ovarian', 'No'),
  ('Cc1cc2c(C(C)C)c(O)c(O)c(/C=N/O)c2c(O)c1-c1c(C)cc2c(C(C)C)c(O)c(O)c(/C=N/O)c2c1O', 'NCI/ADR-RES ovarian', 'No');
